Source listed as the nanobody polyreactivity screen of Harvey et al. (2022).

# assay_name: yeast display, Sf9 membrane polyspecificity reagent, FACS + sequencing; frameworks hold sequencing errors
assay_metric: polyreactivity (PSR sort gate)

Solved entries (count: 4):
QVQLVESGGVLVQAGGSLRLSCAASGRIFDIYAMGWYRQAPGKERELVAGITWRAGSTYYADSVKGRFTISRDNAKNTVYLQMNSLKPEDSAVYFCARDYSRHKGDYWGQGTQVTVSS; low polyreactivity
QVQLVESGGGLVQAGGSLRLSCAASGSIFHYNAMGWYRQAPGKERELVAAISTSGGSTYYADSVKGRFTISRDNAKNTVYLQMNSLKPEDTAVYYCNAYHRYRRLEMYYWGQGTQVTVSS; high polyreactivity
QVQLVESGGGLVQEGGSLRLSCAASGSIFSIYAMGWYRQAPGKERELVAAIDSGTSTTYADSVKGRFTISRDNAKNTVYLQMNSLKPEDTAVYYCAAALYSDVAAVATYGYYWGQGTQVTVSS; low polyreactivity
QVQLVESGGGLVQAGGSLRLSCAASGSTFGSYAMGWYRQAPGKERELVAAITGSGGRTYYADSVKGRFTISRDNAKNRVYLQLNSLKPEDTAVYYCAKVPDYRFEYWGQGTQVTVSS; high polyreactivity

Consider now this further sequence.
Please give the measured polyreactivity (PSR sort gate) for this sequence: QDQLVESGGGLVQAGGSLRLSCAASGRTLVGNAMGLYRQAHGKERELVAAISLSDDITYYADSVKGRFTISRDNAKKTFYLQMNSLKPEDTAVYYCAAVYPGDSDFLGSYEESDSWGQGTQVTVSS
low polyreactivity

====

# assay_name: yeast display, Sf9 membrane polyspecificity reagent, FACS + sequencing; frameworks hold sequencing errors
assay_metric: polyreactivity (PSR sort gate)

QVHLVESGGWLVQAGGSLRLSCAASGRTFHVYAMGWYRQAPGKERELVAAITWSGDSTYYADSVKGRFTISRDNAKNTVYLQMNSLKPEDTAVYYCAASQFWKYDYWGQGTQVTVSS; low polyreactivity
QVQLVESGGGLVQAGGSLRLSCAASGSTFGDNAMGSYRQAPGKERELVAAISSGGGSTYYADSVKGRFTISRDNAKNTVYLQMNSLKPEDTAVYYCAADVTLTLYRYILDYWGQGTQVTVSS; low polyreactivity

====

# assay_name: yeast display, Sf9 membrane polyspecificity reagent, FACS + sequencing; frameworks hold sequencing errors
assay_metric: polyreactivity (PSR sort gate)

QVQLVESGGGLVKAGGSLRLSCAASGSIIGFYAMGWYILAPGKERELVAAITRGGGSTFYADSVKGRFTFSRDNAKNTVYLQMNSLKPEDTAVYYCAATVYRYHGPGYYYWGQGTQVTVSS; high polyreactivity
QVQLVESGGGLVQAGGSLRLSCAASGSTFYGYAQGWYRQAPRKERELVAAISRTGTTNYADSVKGRFTISRDNAKNTVYLQMNSLKPEVTAVYYCNVRGYEVWYPLAYDYWGQGTQVTVSS; high polyreactivity

====

# assay_name: yeast display, Sf9 membrane polyspecificity reagent, FACS + sequencing; frameworks hold sequencing errors
assay_metric: polyreactivity (PSR sort gate)

Solved entries (count: 4):
QVKLVESGGGLVHAGGSLRLSCAASGFIFYYYAMGWYRQAPGKERELVAAITSSGGSTYYADSVKGRFTISRDNAKNTVYLQMNSLKPEDTAVYYCNARYVSASRNRGTSRYDYWGQGTQVTVSS; high polyreactivity
QVQLVESGGGLVQAGGSLRLSCAASGRTFRYNAMGWYRQAPGKERELVADITFSGGNTYYADSVKGRFTISRDNAKNTVYLQMNSLKPEDTAVYYCAKRRYYTGGMDYWGQGTQVTVSS; low polyreactivity
QVQLVESGGGLVQAGGSLRLSCAASGRIFTRYAMGWYRQAPGKERELVAAIDRGGSTYYADSVKGRFTISRDNAKNTVYLQMNSLKPEDTAVYYCAARIKAWGLEFYYWGQGTQVTVSS; high polyreactivity
QVQLVESGGGLVQAGGSLRLSCAASASIFILNAMGWYRPAPGKERELVAAISWSGGRTNYADSVKGRFTISRDTAKNTVYLHMNSLKPEETAVYFCAARVTPYRGFYYWGQGTQVTVSS; high polyreactivity

Please give the measured polyreactivity (PSR sort gate) for this sequence: QVQLVESGGGLFQAGGSLRLSCAASGSTFRFNAMGWYRQAPGKERELVAAISRSGGTTYYADSVKGRFTISRDNAKNTVYLQMNSLKPEDTAVYYCNAQWWRYWPSQVIFDYWGQGTQVTVSS
high polyreactivity

Subsequent entry: QVQLVESGGGLVQAGGSLRLSCAASGGIYYYAMGWDRQAPGKERELVAAISSGGGNTNYADSVKGRFTISRDNAKNTVYLQMNSLKPVDTAVYYCAAEHPVTYRTSKFDYWGQGTQVTVSS
low polyreactivity

Subsequent entry: LVQLVESGGGLVQAGGSLRLSFAASGLIFGRYAMGWYTQAPGKERELVAAISSSGVRTYYADSVKGRFTLSRDNAKNTVYLQLNSLKPEDTAVYYCAAAYWSSPEDTVIKRYYWGQGTQVTVSS
high polyreactivity

Subsequent entry: QVQLVESGGGLDQAGGSLRLSSAASGFTISWYDMGWYRQAPGKERELVAAITYTGGSTYYADSVKGRFTISRDNAKNTVYFQMNSLKPEDTAVYYCNADEPSSNMDYWGQGTQVTVSS
low polyreactivity

Subsequent entry: QVQLVESGGGLVQAGGSLLLICAASGSILGTNAMGWYRQAPGKERELVAAISSSGRTSYADSVKGRFTISRDNAKNTVSLQMNSLKPEDTAVYYCNASNYIVLIIDPDAAPWLYDYWGQGTQVTVSS
low polyreactivity

Subsequent entry: QVQLVESCGGLVQAGGSLRLSCADSGRTIYVNAMGCYRQAPGKERELVARITSGGSTYYADSVKGRFTISRDNAKNTVYLQMNSLTPEDTAVLYCAKKYIGYQDWIHSTRRYDYWGQGTQVTVSS
low polyreactivity

Subsequent entry: QVQLVESGGGLVQAGGSLRLSCAASGFTSFANAMGWYRQAPGKERELVASITNSGGSTHYADSVKGRFTISRDNAKNTVYLQMNSLKPEDTAVYYCAADYWIVYRIYGSKYLGKWYDYWGQGTQVTVSS
low polyreactivity
